Data credit: patent US10214507B2

test: 7 day dosing, glucose metabolism, insulin and compound levels in db/db mice; type: in vivo, mouse; conditions: male, mouse, plasma, around 8 hours after last dose, 50 mg/kg PO 7 days, read-out: compound level in plasma
Observation Type: concentration at 8 h (nM)
Give bare numbers, in nM.

Task: // concentration at 8 h lookup, key: O=C1NCCN1CC(O)Cn1c2ccc(F)cc2c2cc(F)ccc21 (stereo not shown) [Compound 72]
Output: 530

###

Tested on: stable U20S reporter cells harboring Per2-dLuc
Assay: Per2 assay for evaluating the potency of test compounds (circadian luciferase reporter)
Type: cell-based
Settings: amplitude of Per2-dLuc luminescence vs log concentration
Experimental: Compounds were screened by using a high-throughput circadian assay system as previously described in Zhang, E. E. et al. Cell, 2009, 139, 199-210. […] Plates are sealed, shaken briefly, and gene expression was monitored by measuring luminescence (Tecan® Infinite M200 or Tecan® Infinite M200 Pro) continuously for a minimum of 3 days at 35° C. […] Amp data are then plotted against the logarithm compound concentration (M) and analyzed by nonlinear regression analysis to determine the EC50.
Observation Type: pEC50
Answers are plain numbers, as −log10 of the molar value.

// each compound listed below needs its pEC50
1. C[C@H]1CCC(=O)N1C[C@H](O)Cn1c2ccc(F)cc2c2cc(F)ccc21
2. CC1CCN(CC(C)(O)Cn2c3ccc(F)cc3c3cc(F)ccc32)C1=O (centres unmarked)
3. CC(C)N1CCN(CC(O)Cn2c3ccccc3c3ccccc32)C1=O (centres unmarked)

Output:
[6.08, 6.05, 6.57]

###

assay: Pharmacokinetic analysis in SD rats (plasma, LC/MS/MS); format: in vivo, rat; details: male, SD, po; rat plasma, 50 mg/kg P.O.; read-out: MRT (0-last, hr)
Observation Type: MRT last
Reply with the number, then its unit.

Task: Could you share which MRT last value was measured for O=C1NCCN1CC(O)Cn1c2ccc(F)cc2c2cc(F)ccc21 (stereo not shown) ?
Output: 4.94 h

###

test: Increasing dosages of Compound 72 for 7 days in db/db mice; type: in vivo, mouse; settings: male, mouse, liver, oral, 50 mg/kg, around 8 hours after last dose, read-out: compound level in liver
Observation Type: concentration at 8 h (nM)
One number for each entry, in nM.

Task: What value of measured concentration at 8 h is listed for O=C1NCCN1CC(O)Cn1c2ccc(F)cc2c2cc(F)ccc21 (stereo not shown) [Compound 72] ?
Output: 780

###

tested on: stable U20S reporter cells harboring Per2-dLuc; test: Per2 assay for evaluating the potency of test compounds (circadian luciferase reporter); format: cell-based; conditions: amplitude of Per2-dLuc luminescence vs log concentration
I'd be grateful if you could share measured pEC50 for these entries.
Give bare numbers, as −log10 of the molar value.

Use these answered entries as a reference point.
{"Molecule": "CC1CC(=O)N(CC(O)Cn2c3ccc(F)cc3c3cc(F)ccc32)C1 (stereo not drawn)", "Assay System": "stable U20S reporter cells harboring Per2-dLuc", "Recorded Number": 5.99}
{"Molecule": "O=C1[C@@H](F)CCN1C[C@H](O)Cn1c2ccccc2c2ccccc21", "Assay System": "stable U20S reporter cells harboring Per2-dLuc", "Recorded Number": 6.58}
{"Molecule": "CCC1CCC(=O)N1CC(C)(O)Cn1c2ccc(F)cc2c2cc(F)ccc21 (stereo not drawn)", "Assay System": "stable U20S reporter cells harboring Per2-dLuc", "Recorded Number": 6.20}
{"Molecule": "CCN1CCCN(CC(O)Cn2c3ccc(F)cc3c3cc(F)ccc32)C1=O (stereo not drawn)", "Assay System": "stable U20S reporter cells harboring Per2-dLuc", "Recorded Number": 6.30}
{"Molecule": "CCC1CC(=O)N(CC(O)Cn2c3ccc(F)cc3c3cc(F)ccc32)C1 (stereo not drawn)", "Assay System": "stable U20S reporter cells harboring Per2-dLuc", "Recorded Number": 7.28}

Give measured pEC50 for every item shown.
1. O=C1C2CCC(C2)N1CC(O)Cn1c2ccc(F)cc2c2cc(F)ccc21 (stereo not drawn)
2. O=C1[C@@H]2CC[C@@H](C2)N1C[C@H](O)Cn1c2ccccc2c2ccccc21
3. CC1CCCC(=O)N1CC(O)Cn1c2ccc(F)cc2c2cc(F)ccc21 (stereo not drawn)
4. O=C1CCCCN1CC(O)Cn1c2ccc(F)cc2c2cc(F)ccc21 (stereo not drawn)
5. C[C@@H]1CCC(=O)N(C[C@@H](O)Cn2c3ccccc3c3ccccc32)C1
6. CC1CCC(=O)N1CC(O)Cn1c2ccc(F)cc2c2cc(F)ccc21 (stereo not drawn)
7. COC1CCCN(CC(O)Cn2c3ccccc3c3ccccc32)C1=O (stereo not drawn)
8. O=C1CC(C2CC2)CN1CC(O)Cn1c2ccccc2c2ccccc21 (stereo not drawn)

Output:
6.92
6.66
6.47
6.72
6.08
6.54
6.48
5.99

Batch of 5 molecules: report pEC50 for each.
1. CC(O)(CN1CCCC1=O)Cn1c2ccc(F)cc2c2cc(F)ccc21 (stereo not drawn)
2. C[C@H]1CN(C[C@H](O)Cn2c3ccccc3c3ccccc32)C(=O)N1
3. CC1CN(CC(O)Cn2c3ccc(F)cc3c3cc(F)ccc32)C(=O)N1 (stereo not drawn)
4. O=C1[C@H](F)CCN1C[C@H](O)Cn1c2ccccc2c2ccccc21
5. O=C1N(CC(O)Cn2c3ccc(F)cc3c3cc(F)ccc32)CCN1C1CC1 (stereo not drawn)

Output:
[6.28, 6.12, 6.18, 6.68, 6.28]
